# TARGET_OR_TEST_SYSTEM: hLTBP1-proTGFβ1 in the cell-based potency assay (human, UniProt P01137 30-390; Q14766 347-1721)
# Sequence (P01137 30-390 limits assumed, chain 1 of 2): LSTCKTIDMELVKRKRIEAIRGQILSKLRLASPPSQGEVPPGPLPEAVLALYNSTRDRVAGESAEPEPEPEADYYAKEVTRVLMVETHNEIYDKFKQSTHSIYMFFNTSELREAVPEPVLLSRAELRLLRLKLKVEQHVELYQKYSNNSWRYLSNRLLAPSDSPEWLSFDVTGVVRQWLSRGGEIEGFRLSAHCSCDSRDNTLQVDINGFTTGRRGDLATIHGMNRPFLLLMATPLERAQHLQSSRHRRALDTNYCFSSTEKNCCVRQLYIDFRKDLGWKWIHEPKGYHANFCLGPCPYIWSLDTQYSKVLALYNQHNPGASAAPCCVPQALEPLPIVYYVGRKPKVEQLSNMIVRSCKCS
# Sequence (Q14766 347-1721 limits assumed, chain 2 of 2): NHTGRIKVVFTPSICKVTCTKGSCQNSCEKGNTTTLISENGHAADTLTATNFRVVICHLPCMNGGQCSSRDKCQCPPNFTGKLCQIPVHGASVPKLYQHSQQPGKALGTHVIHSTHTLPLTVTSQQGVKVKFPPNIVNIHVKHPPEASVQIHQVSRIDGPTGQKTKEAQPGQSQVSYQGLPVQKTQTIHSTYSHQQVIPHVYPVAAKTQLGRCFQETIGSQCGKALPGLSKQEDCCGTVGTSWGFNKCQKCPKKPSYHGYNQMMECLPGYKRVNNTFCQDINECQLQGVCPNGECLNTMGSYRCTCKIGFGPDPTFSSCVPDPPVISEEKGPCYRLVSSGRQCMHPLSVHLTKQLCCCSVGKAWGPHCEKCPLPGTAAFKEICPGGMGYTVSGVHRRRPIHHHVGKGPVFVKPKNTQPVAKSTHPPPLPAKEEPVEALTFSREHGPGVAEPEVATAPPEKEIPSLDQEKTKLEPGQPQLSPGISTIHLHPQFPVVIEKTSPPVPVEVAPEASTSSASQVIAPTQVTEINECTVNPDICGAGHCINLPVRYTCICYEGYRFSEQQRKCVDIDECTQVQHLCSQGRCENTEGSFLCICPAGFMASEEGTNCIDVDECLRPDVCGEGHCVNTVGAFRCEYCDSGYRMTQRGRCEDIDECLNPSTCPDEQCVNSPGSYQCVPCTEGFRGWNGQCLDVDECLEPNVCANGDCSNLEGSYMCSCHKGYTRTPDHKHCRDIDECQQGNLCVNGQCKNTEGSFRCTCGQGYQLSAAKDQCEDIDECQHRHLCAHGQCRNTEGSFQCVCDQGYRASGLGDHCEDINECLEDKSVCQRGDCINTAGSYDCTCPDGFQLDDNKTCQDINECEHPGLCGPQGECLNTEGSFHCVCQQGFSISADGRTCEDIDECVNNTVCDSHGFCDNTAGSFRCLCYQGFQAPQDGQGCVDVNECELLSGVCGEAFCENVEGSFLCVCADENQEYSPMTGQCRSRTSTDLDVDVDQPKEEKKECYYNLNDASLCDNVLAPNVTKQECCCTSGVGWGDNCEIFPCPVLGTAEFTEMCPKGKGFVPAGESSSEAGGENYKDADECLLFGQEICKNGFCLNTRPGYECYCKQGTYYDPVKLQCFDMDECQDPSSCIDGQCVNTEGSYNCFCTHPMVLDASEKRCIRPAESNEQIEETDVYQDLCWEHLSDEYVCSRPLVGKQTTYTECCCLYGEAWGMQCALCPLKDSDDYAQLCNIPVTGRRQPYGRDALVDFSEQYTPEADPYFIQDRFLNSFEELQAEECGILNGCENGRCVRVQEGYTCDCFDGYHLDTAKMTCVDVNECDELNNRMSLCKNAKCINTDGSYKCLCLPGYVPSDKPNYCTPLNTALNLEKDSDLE
# ASSAY_EXPLANATION: cell-based or functional assay
MEASURE_NAME: IC50, reporter cell assay of TGFβ1 activation (nM)
Give the number; nM is assumed, so skip it.

Example results:
Q) # query: IC50, reporter cell assay of TGFβ1 activation of entry Ab21 (antibody, V domains shown) VH: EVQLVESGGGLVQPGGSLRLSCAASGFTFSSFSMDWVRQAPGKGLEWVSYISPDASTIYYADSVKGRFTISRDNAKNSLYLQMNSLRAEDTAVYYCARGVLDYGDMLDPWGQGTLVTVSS VL: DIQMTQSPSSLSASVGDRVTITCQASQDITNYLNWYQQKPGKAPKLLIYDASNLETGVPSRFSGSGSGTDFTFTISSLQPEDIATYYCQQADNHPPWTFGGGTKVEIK
A) 1.6

Q) # query: IC50, reporter cell assay of TGFβ1 activation of entry Ab23 (antibody, V domains shown) VH: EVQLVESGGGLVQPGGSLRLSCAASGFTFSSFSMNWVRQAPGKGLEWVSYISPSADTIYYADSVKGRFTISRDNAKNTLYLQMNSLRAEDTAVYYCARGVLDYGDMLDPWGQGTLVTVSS VL: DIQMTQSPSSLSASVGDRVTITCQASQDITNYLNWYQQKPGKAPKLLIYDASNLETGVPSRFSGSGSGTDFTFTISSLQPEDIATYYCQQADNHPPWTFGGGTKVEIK
A) 0.8

More entries:
Q) # query: IC50, reporter cell assay of TGFβ1 activation of entry Ab5 (antibody, V domains shown) VH: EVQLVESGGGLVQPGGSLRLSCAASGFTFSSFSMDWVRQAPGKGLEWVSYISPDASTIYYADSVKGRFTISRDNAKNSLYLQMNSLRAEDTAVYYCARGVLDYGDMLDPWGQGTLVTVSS VL: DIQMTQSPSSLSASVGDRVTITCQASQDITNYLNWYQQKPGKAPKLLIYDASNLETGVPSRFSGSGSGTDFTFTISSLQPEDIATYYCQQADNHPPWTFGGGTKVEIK
A) 1.3
